# Tested on: HOP-92 NSCLC
# assay summary: NCI-60 one-dose screen, 48 h (100 = growth as untreated, 0 = no growth, -100 = all killed)
# measurement context: 10 µM unless noted
Compounds without any hit were thinned out: in the full panel of roughly 83,000, 20% have a hit.
measured property: growth (%)
Form entry: value (%) — number only.

COc1ccc2c(c1)C=CC1(O2)Oc2ccc(OC)cc2C=C1C (centres undefined) ... -6.57

Task: Can you share its growth? I mean this molecule: COc1cccc2c1C=CC1(O2)Oc2cccc(OC)c2C=C1C (centres undefined)
Output: -5.13

Task: Can you share its growth? I mean this molecule: CC1=Cc2ccccc2OC12C=Cc1ccccc1O2 (centres undefined)
Output: 98.6

Task: Can you share its growth? I mean this molecule: C=CCSC1=NC2C(N(CC)C(=O)N2CC)N1/N=C/C=C/c1ccccc1OC (centres undefined)
Output: 68.4

Task: Can you share its growth? I mean this molecule: Cc1ccc2c(n1)C(=O)C(Cl)=C(Nc1cccc(C(F)(F)F)c1)C2=O
Output: 107

Task: Can you share its growth? I mean this molecule: CCCc1cc2cc(-n3nc(CC)c4c3CC(C)(C)CC4=O)cc(NC3CCC(O)CC3)c2c(=O)[nH]1 (centres undefined)
Output: -1.33

Task: Can you share its growth? I mean this molecule: CC1=C(C)C(=O)C(Nc2ccc3c(c2)OCCO3)=C(Br)C1=O
Output: 68.2

Task: Can you share its growth? I mean this molecule: CCOC(=O)c1c(NC(=O)c2ccc(C(F)(F)F)cc2)sc2c(CN3CCN(C)CC3)c(O)ccc12
Output: 24.2

Task: Can you share its growth? I mean this molecule: C/C(=N\NC(N)=S)c1nnn(-c2ccc([N+](=O)[O-])cc2)c1C
Output: 98.7

Task: Can you share its growth? I mean this molecule: CN1CCN(CCCCCC(=O)Nc2nc(-c3cccc(NS(=O)(=O)c4cccc5c(N(C)C)cccc45)c3)cs2)CC1
Output: 32.4

Task: Can you share its growth? I mean this molecule: COc1ccc(/C(=N\NC(N)=S)c2ccc(Cl)cc2)cc1OC
Output: 48.6

Task: Can you share its growth? I mean this molecule: Fc1cc(F)cc(NNC(=S)c2ccccc2)c1
Output: -16.7

* * *

# Test system: 786-0 renal
# assay summary: NCI-60 one-dose screen, 48 h
# measurement context: 10 µM unless noted
Compounds without any hit were thinned out: in the full panel of roughly 83,000, 20% have a hit. Activity calls are given as the source filed them. How the source made its calls: active means growth percent below 10; inactive means the rest.
Your answer must be one of the following: active, inactive

Task: Check the results log: what was the call for CN1CCN(c2ccc(Nc3nc(NCCCNS(=O)(=O)c4cccc5ccccc45)c4sccc4n3)cc2)CC1 ?
Output: active

Task: Check the results log: what was the call for COC(=O)c1cccc(NC2=C(Cl)C(=O)C(C)=C(C)C2=O)c1 ?
Output: inactive

Task: Check the results log: what was the call for Cc1cc(=O)[nH]c(O)c1C#N ?
Output: inactive

Task: Check the results log: what was the call for NC(=O)c1c(NC(=O)c2ccc(C(F)(F)F)cc2)sc2c1CCC(=O)C2 ?
Output: inactive

Task: Check the results log: what was the call for N#Cc1nc(-c2ccc(Cl)cc2)oc1N1CCC(S(=O)(=O)N2CCOCC2)CC1 ?
Output: inactive

Task: Check the results log: what was the call for Cc1cc(NS(=O)(=O)c2ccc(NC(=O)CSc3nc4ccccc4c(=O)n3-c3ccccc3)cc2)no1 ?
Output: inactive

Task: Check the results log: what was the call for CSc1ccc(/C(=N/N=C(N)N)c2ccc(F)cc2)cc1 ?
Output: inactive

* * *

# System: SN12C renal
# assay summary: NCI-60 one-dose screen, 48 h
# measurement context: 10 µM unless noted
About 83,000 compounds went through this panel and 20% of them were active in at least one assay; those are over-represented in the sample as a whole. Active and inactive are the calls of the source. The calls were made as follows: active = growth percent below 10; inactive = the rest.
Your answer must be one of the following: true for active, false for inactive

Answered examples (5):
Cc1csc(/N=C(N)/N=C(\N)c2cccnc2)n1 ... false
O=C(/C=C/Nc1ccc(S(=O)(=O)Nc2ncccn2)cc1)c1ccc(N=Cc2c(O)[nH]c3ccccc23)cc1 ... false
Cc1ccc(S(=O)(=O)c2nc(-c3ccc(F)cc3)oc2S(C)(=O)=O)cc1 ... false
C#CCN(C)CCCOc1ccc(NC(=O)CCCCCCCCC(=O)NO)cc1Cl ... false
COc1ccc2[nH]cc(-c3nc(N)nnc3-c3cn(C)c4ccc(Br)cc34)c2c1 ... false

Task: Check the results log: what was the call for CC(=O)N(O)CCCCCNC(=O)CCC(=O)N(O)CCCCCNC(=O)CCC(=O)N(O)CCCCCN(CCCCCCCCCC[P+](c1ccccc1)(c1ccccc1)c1ccccc1)CCCCCCCCCC[P+](c1ccccc1)(c1ccccc1)c1ccccc1 ?
Output: true

* * *

# Tested on: OVCAR-3 ovarian
# assay summary: NCI-60 one-dose screen, 48 h
# measurement context: 10 µM unless noted
The panel holds about 83,000 compounds, 20% with a hit somewhere; the sample as a whole holds those more often. Activity calls are given as the source filed them. The calls were made as follows: active = growth percent below 10; inactive = the rest.
Your answer must be one of the following: true (1) for active, false (0) for inactive

Answered examples (4):
C#Cc1cc(C(=O)Nc2ccc(CNCCN3CCOCC3)c(C(F)(F)F)c2)ccc1C ... false (0)
COc1cc2oc(-c3cccc(NC(=O)[C@@H](N)C(C)C)c3)cc(=O)c2c(OC)c1OC ... false (0)
Cc1nc(N)sc1-c1csc(Nc2ccc(C(F)(F)F)cc2)n1 ... false (0)
O=C(/C=C/c1cccc(F)c1)c1cccc(OCCCCOc2cccc(C(=O)/C=C/c3cccc(F)c3)c2)c1 ... false (0)

Task: Check the results log: what was the call for CN(C)S(=O)(=O)c1ccc(-c2nc(C(Cl)Cl)nc3cc(-c4ccc(F)cc4)nn23)cc1 ?
Output: true (1)

Task: Check the results log: what was the call for CCOC(=O)c1ccc(NC2=C(Cl)C(=O)c3nc(C)ccc3C2=O)cc1 ?
Output: true (1)

Task: Check the results log: what was the call for C=CCSC1=NC2C(N(CC)C(=O)N2CC)N1/N=C/C=C/c1ccccc1OC (configuration not stated) ?
Output: false (0)

Task: Check the results log: what was the call for NNc1nnc2nc(Nc3ccccc3)nc(Nc3ccc(S(N)(=O)=O)cc3)n12 ?
Output: false (0)

Task: Check the results log: what was the call for Cc1ccc(S(=O)(=O)NCCCNc2nc(Nc3ccc(N4CCN(C)CC4)cc3)nc3ccsc23)cc1 ?
Output: false (0)

Task: Check the results log: what was the call for Cc1ccc2c(n1)C(=O)C(Cl)=C(Nc1ccc(C)c(C)c1)C2=O ?
Output: true (1)

Task: Check the results log: what was the call for CC1(C)C=Cc2cc(/C(N)=N/C(N)=N/c3nc4ccccc4s3)ccc2O1 ?
Output: false (0)

Task: Check the results log: what was the call for C#CCn1cc(/C=N/Nc2nc(-c3ccc(Br)cc3)cs2)c2ccccc21 ?
Output: false (0)

* * *

# Tested on: MOLT-4 leukemia
# assay summary: NCI-60 one-dose screen, 48 h (100 = growth as untreated, 0 = no growth, -100 = all killed)
# measurement context: 10 µM unless noted
Compounds without any hit were thinned out: in the full panel of roughly 83,000, 20% have a hit.
Recorded growth split into classes low = under 10%, medium = from 10% up to 50%, high = 50% and over

Answered examples (4):
Cc1ccccc1N1CCN(C2=C(Cl)C(=O)c3ncccc3C2=O)CC1 ... medium
O=C(/C=C/c1ccc(Cl)c(Cl)c1)Nc1ncc(Cc2ccc(Cl)c(Cl)c2)s1 ... high
N#Cc1cnc2ccc(-c3cnc4n[nH]nc4c3)cc2c1N1CCc2cc(F)c(Cl)cc21 ... low
O=C(Nc1cccc(C(F)(F)F)c1)N1CCN(c2cc(-c3cn(-c4ccccc4)nc3-c3cccc(O)c3)ccn2)CC1 ... medium

Task: Hi, small favor: classify N#Cc1nc(-c2ccccc2)oc1N1CCC(C2(C(F)(F)F)N=N2)CC1 by its growth when you get a moment.
Output: high

Task: Hi, small favor: classify COc1ccc(C(C)=C(c2ccc(OCCN(C)C)cc2)c2ccc(OCCN(C)C)cc2)cc1 by its growth when you get a moment.
Output: low

Task: Hi, small favor: classify Cc1ccc2c(n1)C(=O)C(Cl)=C(Nc1cc(C(F)(F)F)cc(C(F)(F)F)c1)C2=O by its growth when you get a moment.
Output: low

Task: Hi, small favor: classify CC(=C(c1ccc(OCCCN(C)C)cc1)c1ccc(OCCCN(C)C)cc1)c1ccc(Cl)cc1 by its growth when you get a moment.
Output: high

Task: Hi, small favor: classify CCOc1cccc(/C(N)=N/C(N)=N/c2nc3ccccc3s2)c1 by its growth when you get a moment.
Output: high

Task: Hi, small favor: classify CCNC(=O)Oc1ccc(/C(=C(/C)c2ccc(Cl)cc2)c2ccc(OCCN3CCCCCC3)cc2)cc1 by its growth when you get a moment.
Output: medium

Task: Hi, small favor: classify O=C(CCCCCCN1CC(=O)N2[C@@H](c3ccc(Cl)s3)c3[nH]c4ccccc4c3C[C@H]2C1=O)NO by its growth when you get a moment.
Output: medium

Task: Hi, small favor: classify Cn1cc(C2=C(c3coc4cc(Br)ccc34)C(=O)NC2=O)c2ccccc21 by its growth when you get a moment.
Output: high
